Data provenance is PubChem BioAssay (NCI).

test system: OVCAR-5 ovarian; test: NCI tumour cell line growth inhibition, 48 h
READOUT_NAME: TGI

COMPOUND: COc1cccc2c1CCc1ccccc1CC2=O
VALUE_OBSERVED: > 100 µM

COMPOUND: CCCCCCCC1(N=[N+]=[N-])C(=O)c2ccccc2N(C)C1=O (stereo unspecified)
VALUE_OBSERVED: > 100 µM

COMPOUND: COc1cc(/C=C2\[C@H]3c4c(c(OC)c(C)c(OC)c4OC)C[C@@H](C(=O)N2Cc2ccccc2)N3C(=O)OCC(C)C)c(OC)c(C)c1OC
VALUE_OBSERVED: > 100 µM

COMPOUND: CC(C)(C)OC(=O)N(O)[C@@H]1C=C[C@H](n2cnc3c(N)ncnc32)C1
VALUE_OBSERVED: > 100 µM

COMPOUND: CC1=NN(C(=O)CC(=O)Nc2ccccc2C)C(=O)C1N=Nc1ccc(C(=O)O)cc1 (stereo unspecified)
VALUE_OBSERVED: > 100 µM

COMPOUND: COC(=O)CCC(=O)CC(=O)C1=NS(=O)(=O)c2nc(S(N)(=O)=O)c(Cl)cc2N1
VALUE_OBSERVED: > 100 µM

COMPOUND: CCN(CC)CCCC(C)Nc1cnc(C(=O)Nc2ccc(Cl)c3cccnc23)cn1 (stereo unspecified)
VALUE_OBSERVED: 3.6 µM

COMPOUND: CCC[CH2][Sn]1([CH2]CCC)[O]C(=O)c2cc(I)cc(I)c2[O]1
VALUE_OBSERVED: 3.48 µM

COMPOUND: CC(C)=CCC[C@@H](C)C1=C(O)C(Nc2ccccc2Br)=C(C)C(=O)C1=O
VALUE_OBSERVED: 41.9 µM

COMPOUND: Cn1c2ccccc2c2c(-c3ccccc3)[n+]3ccccc3nc21
VALUE_OBSERVED: > 100 µM

COMPOUND: O=[N+]([O-])C(Cl)C(Cl)C(Cl)=C(Cl)Cl (stereo unspecified)
VALUE_OBSERVED: > 82.2 µM

COMPOUND: COc1cc(C2=NN(C)C(c3ccc([N+](=O)[O-])o3)C2)cc(OC)c1OC (stereo unspecified)
VALUE_OBSERVED: > 100 µM

COMPOUND: Cc1ccc2c(c1)C(=O)/C(=C\c1ccccc1)CCS2(=O)=O
VALUE_OBSERVED: > 55.7 µM

COMPOUND: CN(NC(=O)c1ccco1)C1=NCCN1
VALUE_OBSERVED: > 100 µM

COMPOUND: CC1Cc2c(Br)nc(N)nc2NC1=O (stereo unspecified)
VALUE_OBSERVED: > 100 µM

COMPOUND: CC(=O)O[C@H]1C(=O)[C@@]2(C)[C@H]([C@H](OC(=O)c3ccccc3)[C@]3(O)C[C@H](OC(=O)[C@H](OC(=O)OCCC(O)CO)[C@@H](NC(=O)c4ccccc4)c4ccccc4)C(C)=C1C3(C)C)[C@]1(OC(C)=O)CO[C@@H]1C[C@@H]2O (stereo partly specified)
VALUE_OBSERVED: 43.5 µM

COMPOUND: CCc1n[nH]c(=S)n1/N=C\c1ccc(-c2ccccc2Cl)o1
VALUE_OBSERVED: > 100 µM

COMPOUND: COC(=O)CCCN(C)c1n[nH]c(N)n1
VALUE_OBSERVED: > 100 µM

COMPOUND: COc1c(C)c(C/C=C(\C)CCCCO[Si](C(C)C)(C(C)C)C(C)C)c(OC)c2ccccc12
VALUE_OBSERVED: > 100 µM

COMPOUND: CN1C(=O)c2ccccc2NC(=O)c2cnn(C)c21
VALUE_OBSERVED: > 100 µM

COMPOUND: COc1cc(-c2nc(Nc3nc4ccccc4[nH]3)nc(N)c2C#N)cc(OC)c1OC
VALUE_OBSERVED: > 86.4 µM

COMPOUND: CC1C(=O)OC2CC[N+]3(CC(=O)c4ccc(Br)cc4)CC=C(COC(=O)C(C)(O)C1(C)O)C23 (stereo unspecified)
VALUE_OBSERVED: > 375 µM

COMPOUND: Cn1ccnc1C(=O)/C=C/c1ccc(C(=O)Nc2ccc(Cl)cc2)cc1
VALUE_OBSERVED: 5.64 µM

COMPOUND: COc1c(Cl)c2c(c(OC)c1OC)-c1ccc(OC)c(=O)c(Cl)c1C(NC(C)=O)CC2 (stereo unspecified)
VALUE_OBSERVED: > 100 µM

COMPOUND: COc1ccc2c(=O)c(C)c(-c3ccccc3)oc2c1CN(C)C
VALUE_OBSERVED: > 100 µM

COMPOUND: O=c1cccccc1NCCOCCNc1cccccc1=O
VALUE_OBSERVED: > 100 µM
